measurementName: pIC50
To interpret pIC50, take it as minus log10 of a concentration measured in moles per litre.

Input line: State, for cGMP-dependent protein kinase (Eimeria tenella), measured pIC50 of the compound listed here: C[C@H](Nc1nccc(-c2c(-c3ccc(F)cc3)nc3cc(CN(C)C)ccn23)n1)c1ccccc1
Output line: 9.33
